- TEST_SYSTEM: T1, Recombinant Human IL-23 (human, UniProt Q9NPF7 20-189; P29460 23-328)
- T1 construct: Recombinant human IL-23; the p40 subunit is added from general knowledge of the heterodimer; also called hIL-23
- T1 sequence (looked up) 1: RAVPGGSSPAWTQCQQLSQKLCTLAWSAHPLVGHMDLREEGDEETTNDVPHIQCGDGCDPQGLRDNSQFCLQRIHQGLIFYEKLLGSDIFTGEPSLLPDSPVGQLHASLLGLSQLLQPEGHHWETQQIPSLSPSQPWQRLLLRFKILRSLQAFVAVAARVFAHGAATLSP
- T1 sequence (looked up) 2: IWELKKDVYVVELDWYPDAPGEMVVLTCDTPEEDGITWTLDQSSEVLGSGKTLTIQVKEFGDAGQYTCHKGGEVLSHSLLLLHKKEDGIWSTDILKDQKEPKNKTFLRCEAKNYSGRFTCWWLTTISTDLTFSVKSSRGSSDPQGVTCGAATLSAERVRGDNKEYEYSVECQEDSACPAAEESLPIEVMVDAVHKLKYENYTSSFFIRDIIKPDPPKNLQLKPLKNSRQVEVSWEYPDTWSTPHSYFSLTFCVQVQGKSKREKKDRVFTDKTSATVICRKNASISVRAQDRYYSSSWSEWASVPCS
- ASSAY_PROTOCOL: SPR (Biacore 8K), mAb captured on anti-human IgG, hIL-23 as analyte, 25 °C

BINDER	kon (M⁻¹ s⁻¹)
Clone MAb001 (antibody, human IgG1, kappa, L234A L235A, V domains shown) VH: QVQLVQSGAEVKKPGSSVKVSCKASGYTFTTQTLHWMRQAPGQGLEWIGYIYPRDGSTKYNENFKGKVTITADKSTSTAYMELSSLRSEDTAVYYCAIPDRSGYAWFQHWGQGTLVTVSS VL: DIQMTQSPSSLSASVGDRVTITCKASRDVAIAVAWYQQKPGKVPKLLIYWASTRHTGVPSRFSGSGSRTDFTLTISSLQPEDVADYFCHQYSSYPFTFGSGTKLEIKR	151000
Clone MAb004 (antibody, human IgG1, V domains shown, Tested in full antibody format; The printed constant part is human IgG1 with LALA/YTE) VH: QVQLVQSGAEVKKPGSSVKVSCKASGYTFTAQTMHWMRQAPGQGLEWIGYIYPRDGSTKYNENFKGKVTITADKSTSTAYMELSSLRSEDTAVYYCAIPDRSGYAWFIVWGQGTLVTVSS VL: EIVMTQSPATLSVSPGERATLSCKASRDVAIAVAWYQQKPGQAPRLLLFWASTRHTGIPARFSGSGSRTEFTLTISSLQSEDFAVYYCHQYSSYPFTFGGGTKVEIK	247000
Reference Antibody 1 (antibody, human IgG1, kappa, L234A L235A, V domains shown, Human IgG1 with LALA; also called parental anti-human IL-23p19 antibody) VH: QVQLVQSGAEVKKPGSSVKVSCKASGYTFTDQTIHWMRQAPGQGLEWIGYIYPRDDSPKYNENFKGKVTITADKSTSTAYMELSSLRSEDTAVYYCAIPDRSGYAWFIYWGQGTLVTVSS VL: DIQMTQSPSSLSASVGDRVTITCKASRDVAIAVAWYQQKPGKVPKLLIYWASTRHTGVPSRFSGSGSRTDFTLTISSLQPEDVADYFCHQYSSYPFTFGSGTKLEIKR	167000
Clone MAb003 (antibody, V domains shown) VH: QVQLVQSGAEVKKPGSSVKVSCKASGYTFTSQTMHWMRQAPGQGLEWIGYIYPRDDYPKYNDNFKGKVTITADKSTSTAYMELSSLRSEDTAVYYCAIPDRSGYAWFIHWGQGTLVTVSS VL: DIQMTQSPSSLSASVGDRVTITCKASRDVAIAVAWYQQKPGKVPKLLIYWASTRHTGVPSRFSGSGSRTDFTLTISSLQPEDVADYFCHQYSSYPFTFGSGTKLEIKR	164000

Provenance of the data: patent US12655208
